What pIC50 was measured for each of the following?
Biological target: recombinant human ETA R (Homo sapiens, UniProt P25101)
Sequence (P25101 21-427): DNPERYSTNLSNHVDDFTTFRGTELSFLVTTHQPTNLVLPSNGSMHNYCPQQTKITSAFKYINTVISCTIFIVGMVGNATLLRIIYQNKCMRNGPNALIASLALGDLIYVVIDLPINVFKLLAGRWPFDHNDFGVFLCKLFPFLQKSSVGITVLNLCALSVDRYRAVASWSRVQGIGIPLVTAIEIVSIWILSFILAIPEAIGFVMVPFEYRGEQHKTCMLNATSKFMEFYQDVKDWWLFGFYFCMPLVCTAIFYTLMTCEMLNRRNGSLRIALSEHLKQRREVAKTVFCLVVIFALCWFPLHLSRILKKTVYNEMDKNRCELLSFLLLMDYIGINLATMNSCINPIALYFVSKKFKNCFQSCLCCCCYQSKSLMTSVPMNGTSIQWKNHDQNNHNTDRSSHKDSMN
Test: [125I]-ET-1 radioligand binding, Ltk- cells expressing recombinant human ETA R (HERBA-A)
Details: [125I]-ET-1 (40 pM), 2 hours at 37° C.
By convention, pIC50 is the negative base-10 log of a molar concentration.

Dear colleague, I am looking for the recorded pIC50 of the following compound: O=C(NC(C(=O)O)C(c1ccc2c(c1)OCO2)c1ccc2c(c1)OCO2)C(c1ccccc1)c1ccccc1 (stereo not shown)
5.89

Same again, this time with COc1cccc(CC(NC(=O)C(c2ccccc2)c2ccccc2)C(=O)O)c1OCCc1ccccc1 (racemic)
5.47

Do the same for CC(C)c1ccc(S(=O)(=O)NC(C(=O)O)C(c2ccc3c(c2)OCO3)c2ccc3c(c2)OCO3)cc1 (racemic) please
5.40

Then what about the compound COc1ccc(C(c2ccc3c(c2)OCO3)C(NC(=O)C(c2ccccc2)c2ccccc2)C(=O)O)cc1OCc1ccccc1 (racemic) ?
4.57

###

Target: rabbit renal artery vascular smooth muscle cells (ETA) (Oryctolagus cuniculus)
Construct: endogenous in cells
Sequence (A5A8K3 21-427): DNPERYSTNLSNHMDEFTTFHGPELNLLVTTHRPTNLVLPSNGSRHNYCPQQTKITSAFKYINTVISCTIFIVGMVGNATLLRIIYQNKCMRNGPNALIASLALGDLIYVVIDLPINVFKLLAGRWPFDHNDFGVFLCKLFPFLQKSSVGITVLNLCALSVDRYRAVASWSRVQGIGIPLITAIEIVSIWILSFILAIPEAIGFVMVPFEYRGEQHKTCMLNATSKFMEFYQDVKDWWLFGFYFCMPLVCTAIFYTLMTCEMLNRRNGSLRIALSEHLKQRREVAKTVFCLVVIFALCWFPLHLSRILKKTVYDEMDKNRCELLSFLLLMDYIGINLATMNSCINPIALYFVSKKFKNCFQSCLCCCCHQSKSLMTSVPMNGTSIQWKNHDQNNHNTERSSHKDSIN
Assay: [125I]-ET-1 radioligand binding, rabbit renal artery vascular smooth muscle cells (ERBA-A)
Settings: [125I]-ET-1 (40 pM), 2 hours at 37° C.
pIC50: −log10 of the molar value.
assay-readout: pIC50

I would be grateful if you could share the reported pIC50 for COc1cccc(CC(NC(=O)N(c2ccccc2)c2ccccc2)C(=O)O)c1OCc1ccccc1 (racemic) [Example 5] .
4.89

And for COc1cccc(CC(NC(=O)C(Cc2cccc3ccccc23)Cc2cccc3ccccc23)C(=O)O)c1OCc1ccccc1 (racemic) [Example 9] ?
< 4.60

And what about the compound O=C(O)C(Cc1ccccc1OCc1ccccc1)NC(=O)C(c1ccccc1)c1ccccc1 (racemic) [Example 14] ?
< 4.60

###

For each record, write down the corresponding IC50.
Target: recombinant human ETB R (Homo sapiens)
Experiment: [125I]-ET-1 radioligand binding, CHO-K1 cells expressing recombinant human ETB R (HERBA-B)
Conditions: [125I]-ET-1 (40 pM), 2 hours at 37° C.
Respond with the figure and its unit, in that order.

// lookup IC50 | system=recombinant human ETB R (Homo sapiens) | key= CC(C)c1ccc(S(=O)(=O)NC(C(=O)O)C(c2ccc3c(c2)OCO3)c2ccc3c(c2)OCO3)cc1 (racemic) [Example 40]
16 µM

Thanks! And O=C(NC(C(=O)O)C(c1ccc2c(c1)OCO2)c1ccc2c(c1)OCO2)C(c1ccccc1)c1ccccc1 (stereo not shown) [Example 21] ?
2.5 µM

Same lookup for COc1cccc(SC(c2cccc(OC)c2)C(NC(=O)C(c2ccccc2)c2ccccc2)C(=O)O)c1 (racemic) [Example 35] , please.
3 µM

Lookup COc1cccc(CC(NCC(c2ccccc2)c2ccccc2)C(=O)O)c1OCc1ccccc1 (racemic) [Example 16]
9.7 µM

###

Give log10(IC50) for every item shown.
Molecular target: recombinant human ETB R (Homo sapiens, UniProt P24530)
Sequence (P24530 27-442): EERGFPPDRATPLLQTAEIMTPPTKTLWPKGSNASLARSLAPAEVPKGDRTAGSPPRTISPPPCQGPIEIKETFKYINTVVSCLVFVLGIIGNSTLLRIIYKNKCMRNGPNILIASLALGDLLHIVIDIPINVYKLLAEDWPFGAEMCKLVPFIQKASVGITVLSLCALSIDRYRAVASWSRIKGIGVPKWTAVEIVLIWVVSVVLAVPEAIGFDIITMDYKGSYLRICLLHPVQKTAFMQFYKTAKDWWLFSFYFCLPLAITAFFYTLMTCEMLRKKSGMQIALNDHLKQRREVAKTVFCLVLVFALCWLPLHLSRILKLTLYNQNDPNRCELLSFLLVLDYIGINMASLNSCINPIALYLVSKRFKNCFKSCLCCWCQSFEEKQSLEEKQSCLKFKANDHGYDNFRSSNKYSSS
Test: [125I]-ET-1 radioligand binding, CHO-K1 cells expressing recombinant human ETB R (HERBA-B)
Settings: [125I]-ET-1 (40 pM), 2 hours at 37° C.
The common logarithm of IC50 in µM is what is listed.

Bench note: what log10(IC50) did O=C(O)C(Cc1ccccc1OCc1ccccc1)NC(=O)C(c1ccccc1)c1ccccc1 (racemic) [Example 14] show?
1.36

Another molecule to look at: COc1cccc(CC(NC(=O)N(c2ccccc2)c2ccccc2)C(=O)O)c1OCc1ccccc1 (racemic) [Example 5]
0.83

And then O=C(NC(C(=O)O)C(c1ccc2c(c1)OCO2)c1ccc2c(c1)OCO2)c1ccc2c(c1)OCO2 (racemic) [Example 38] , what is it?
1.11

What would you report for COc1cccc(CC(NC(=O)C(c2ccccc2)C2CCCC2)C(=O)O)c1OCc1ccccc1 (racemic) [Example 10] ?
0.34

Request: COc1cccc(CC(NC(=O)C(Cc2cccc3ccccc23)Cc2cccc3ccccc23)C(=O)O)c1OCc1ccccc1 (racemic) [Example 9]
0.34

Note, next up: COc1cccc(CC(NC(=O)C(c2ccccc2)c2ccccc2)C(=O)O)c1OCCc1ccccc1 (racemic) [Example 4]
0.00

How about COc1ccc(C(c2ccc3c(c2)OCO3)C(NC(=O)C(c2ccccc2)c2ccccc2)C(=O)O)cc1OCc1ccccc1 (racemic) [Example 23] ?
1.08

Field entry: COc1cccc(CC(NC(=O)C(c2ccccc2)c2ccccc2)C(=O)O)c1OCCCc1ccccc1 (racemic) [Example 7]
0.97

Similarly, COc1cccc(CC(NC(=O)C(c2ccccc2)c2ccccc2)C(=O)O)c1OCc1ccccc1 (racemic) [Example 3] ?
0.30
